B1: library; a variant is named by its letters at N, in order (parent)
chain: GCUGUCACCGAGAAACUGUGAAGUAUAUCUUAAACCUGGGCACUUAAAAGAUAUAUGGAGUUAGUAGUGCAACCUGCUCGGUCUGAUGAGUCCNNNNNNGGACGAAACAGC

- Variants of: B1
- Experimental details: FACS-Seq fitted mean relative fluorescence mCherry/BFP without ligand (log10 relative fluorescence); HEK293T; ligand: cyclic di-GMP (c-di-GMP-II aptamer); higher = higher reporter protein expression
- Condition context: ligand present: no
Recorded FACS-Seq fitted mean (log10) for the following variants
// keep it numeric: no unit symbol after the value

Past entries and their recorded results:
UCACCA
0.0707
GGUAUC
-0.466
UCCCGU
-0.0215

FACS-Seq fitted mean (log10) measured on CUCUAA = -0.433

FACS-Seq fitted mean (log10) measured on GAUUAA = -0.0108
